# Test system: c-KIT V560G/D816V
# assay text: Proliferation inhibitory activity on Ba/F3 cell (CellTiter-Glo, 72 hours), c-KIT V560G/D816V
# Assay type: cell-based
# stated conditions: Mus musculus, BaF3, c-KIT V560G/D816V cells, read-out: Cell (nM) c-KIT V560G/D816V (GI50 class)
# Procedure: Ba/F3-TEL-PDGFRα(WT), Ba/F3-TEL-PDGFβ(WT), Ba/F3-c-KIT(D816V) (Kyinno, #KC-0138), c-KIT V560G/D816V, c-KIT D814Y were seeded at 3×10^3/100 μl/well in a clear bottom white 96-well plate. […] After mixing well for about 10 minutes at room temperature, […] was measured using a microplate reader. The data were presented as percentages in proportion to treated cells based on the vehicle, GI50 (nM) values were calculated using GraphPad Prism 8.3.0 (GraphPad software Inc., San Diego). […]
quantity kind: GI50

Example molecules with recorded GI50:
# molecule, GI50
measured = [
    ("COc1cc2c(-c3ccc(NC(=O)C(C)(N)c4ccc(F)cc4)cc3)ncnc2cc1OCC(C)C (stereo not shown)", "> 500 nM"),
    ("CCN1CCC(Oc2cc3c(-c4ccc(NC(=O)Cc5ccc(C(F)(F)F)cc5)cc4)ncnc3cc2OC)C1 (stereo not shown)", "200 to 500 nM"),
    ("CCN1CCC(COc2cc3ncnc(-c4ccc(NC(=O)C5(c6ccc(F)cc6)CC5)cc4)c3cc2OC)CC1", "200 to 500 nM"),
]

// moving on: another record for GI50
Q: Value lookup for GI50; key = CCN1CCCC(COc2cc3ncnc(-c4ccc(NC(=O)Cn5cc(C(C)(C)C)nn5)cc4)c3cc2OC)C1 (stereo not shown)
A: > 500 nM

* * *

# Test system: c-KIT V560G/D816V
# assay text: Proliferation inhibitory activity on Ba/F3 cell (CellTiter-Glo, 72 hours), c-KIT V560G/D816V
# Type: cell-based
# stated conditions: Mus musculus, BaF3, c-KIT V560G/D816V cells, read-out: Cell (nM) c-KIT V560G/D816V (GI50 class)
# Protocol: Ba/F3-TEL-PDGFRα(WT), Ba/F3-TEL-PDGFβ(WT), Ba/F3-c-KIT(D816V) (Kyinno, #KC-0138), c-KIT V560G/D816V, c-KIT D814Y were seeded at 3×10^3/100 μl/well in a clear bottom white 96-well plate. […] After mixing well for about 10 minutes at room temperature, […] was measured using a microplate reader. The data were presented as percentages in proportion to treated cells based on the vehicle, GI50 (nM) values were calculated using GraphPad Prism 8.3.0 (GraphPad software Inc., San Diego). […]
quantity kind: GI50

# compound, target under test, quantity kind, meas value
data = [
    ("CCN1CCCC(COc2cc3ncnc(-c4ccc(NC(=O)Cc5ccc(C(F)(F)F)cc5)cc4)c3cc2OC)C1 (stereo not shown)", "c-KIT V560G/D816V", "GI50", "≤ 200 nM"),
    ("COc1cc2c(-c3ccc(NC(=O)Cc4ccc(C(F)(F)F)cc4)cc3)ncnc2cc1OC[C@H]1CCCNC1", "c-KIT V560G/D816V", "GI50", "≤ 200 nM"),
    ("COc1cc2c(-c3ccc(NC(=O)Cc4ccc5c(c4)OCO5)cc3)ncnc2cc1OCC1CCNCC1", "c-KIT V560G/D816V", "GI50", "> 500 nM"),
    ("COCCN1CCCC(COc2cc3ncnc(-c4ccc(NC(=O)Cc5ccc(C(F)(F)F)cc5)cc4)c3cc2OC)C1 (stereo not shown)", "c-KIT V560G/D816V", "GI50", "≤ 200 nM"),
]

Q: Request the reported GI50 associated with "COc1cc2c(-c3ccc(NC(=O)C4(c5ccc(F)cc5)CC4)cc3)ncnc2cc1OCC1CCNCC1"
A: 200 to 500 nM

Q: Given the entry "COc1cc2c(-c3ccc(NC(=O)Cn4cc(C(C)(C)C)nn4)cc3)ncnc2cc1OCC1CCN(C(C)C)CC1" , report its measured GI50.
A: > 500 nM

Q: Consider the compound "COc1cc2c(-c3ccc(NC(=O)Cc4ccc(C(F)(F)F)cc4)cc3)ncnc2cc1OCC1CCN(C)CC1" and give its measured GI50.
A: ≤ 200 nM
